System: rabbit skeletal myofibrils (fast skeletal myofibrils)
Assay: Activation of fast skeletal myofibrils (PUMA assay, PK/LDH-coupled ATPase at pCa25)
Type: biochemical
Conditions: median AC1.4 class, procedure of Example 39
ASSAY_METRIC: Mean AC1.4

>>> reported_result("NC(=O)c1csc(-c2ccc(NCC3(c4ncccc4F)CCC3)nn2)n1")
"D (D=>20 uM)"
>>> reported_result("NC(=O)c1cnn(Cc2ccc(NC3(c4ncccc4F)CCC3)nn2)c1")
"D (D=>20 uM)"

----------
Test system: rabbit skeletal myofibrils (fast skeletal myofibrils)
Assay: Activation of fast skeletal myofibrils (PUMA assay, PK/LDH-coupled ATPase at pCa25)
Type: biochemical
Conditions: median AC1.4 class, procedure of Example 39
ASSAY_METRIC: Mean AC1.4

>>> reported_result("NC(=O)c1cccc(-c2ccc(NC3(c4ccc(F)cn4)CCC3)nn2)c1")
"B (B=1-10 uM)"
>>> reported_result("O=C(NCC1CCCO1)c1cnc(-c2ccc(NCC3(c4ncccc4F)CCC3)nn2)s1 (stereo not drawn)")
"B (B=1-10 uM)"
>>> reported_result("O=C(Nc1ccn[nH]1)c1ccc(NCC2(c3ncccc3F)CCC2)nn1")
"B (B=1-10 uM)"
>>> reported_result("CCOC(=O)c1nc(-c2cc(Cl)c(NCC3(c4ncccc4F)CCC3)nn2)sc1Cl")
"D (D=>20 uM)"
>>> reported_result("CC(C)(N)C(=O)NCc1cnc(-c2ccc(NCC3(c4ncccc4F)CCC3)nn2)s1")
"A (A=<1 uM)"
>>> reported_result("CC1(Nc2ccc(-c3cc(C(N)=O)ccc3F)nn2)CCC1")
"D (D=>20 uM)"
>>> reported_result("O=C(NCCO)c1cnc(-c2ccc(NCC3(c4ncccc4F)CCC3)nn2)s1")
"A (A=<1 uM)"
>>> reported_result("COc1cc(-c2ccc(NCC3(c4ncccc4F)CCC3)nn2)ccc1C(=O)O")
"D (D=>20 uM)"

Just so you know, measured Mean AC1.4 for Fc1cccnc1C1(CNc2ccc(-c3ccc(NCC4(c5ncccc5F)CCC4)nn3)nn2)CCC1 came out at D (D=>20 uM)

Just so you know, measured Mean AC1.4 for COc1ccc(-c2ccc(NCC3(c4ncccc4F)CCC3)nn2)nc1 came out at B (B=1-10 uM)

Just so you know, measured Mean AC1.4 for Fc1cccnc1C1(CNc2ccc(-c3ccccn3)nn2)CCC1 came out at B (B=1-10 uM)

----------
Test system: rabbit skeletal myofibrils (fast skeletal myofibrils)
Experiment: Activation of fast skeletal myofibrils (PUMA assay, PK/LDH-coupled ATPase at pCa25)
Assay type: biochemical
Conditions: AC1.4 determined according to the procedure of Example 39; reported as class symbols
ASSAY_METRIC: Mean AC1.4

>>> reported_result("NC(=O)c1cccc(-c2ccc(NCCc3ccccn3)nn2)c1")
"D (D=>20 uM)"
>>> reported_result("CC(C)(C)CNc1ccc(-c2ccc3[nH]c(=O)[nH]c3c2)nn1")
"D (D=>20 uM)"
>>> reported_result("CC(C)(CNc1ccc(-c2cccc(C(N)=O)c2)nn1)c1ncccn1")
"D (D=>20 uM)"

----------
System: rabbit skeletal myofibrils (fast skeletal myofibrils)
Assay: Activation of fast skeletal myofibrils (PUMA assay, PK/LDH-coupled ATPase at pCa25)
Format: biochemical
Details: median AC1.4 class, procedure of Example 39
ASSAY_METRIC: Mean AC1.4

Here's what some known entries look like.
>>> reported_result("CC(C)NC(=O)c1cnc(-c2ccc(NCC3(c4ncccc4F)CCC3)nn2)s1")
"B (B=1-10 uM)"
>>> reported_result("O=C(O)C1CN=C(c2ccc(NCC3(c4ncccc4F)CCC3)nn2)N1 (stereo not shown)")
"D (D=>20 uM)"
>>> reported_result("COC(=O)c1cccc(-c2ccc(NC[C@]3(c4ncccc4F)C[C@H](F)C3)nn2)c1")
"B (B=1-10 uM)"
>>> reported_result("NC(=O)c1cccc(-c2ccc(NCC(F)(F)c3ccccn3)nn2)c1")
"D (D=>20 uM)"
>>> reported_result("CC(C)(Nc1ccc(-c2cccc(C#N)c2)nn1)c1ccccc1")
"B (B=1-10 uM)"
>>> reported_result("COc1ccc(-c2ccc(NCC3(c4ncccc4F)CCC3)nn2)cc1C(N)=O")
"B (B=1-10 uM)"
>>> reported_result("NC(=O)Nc1ccc(-c2ccc(NCC3(c4ncccc4F)CC(F)(F)C3)nn2)cc1")
"A (A=<1 uM)"
>>> reported_result("N#Cc1cc(-c2ccc(NC3(c4ccc(F)cc4)CCC3)nn2)ccn1")
"B (B=1-10 uM)"

Kindly review the next molecule as well.
Just so you know, measured Mean AC1.4 for CS(=O)(=O)CCNC(=O)c1cnc(-c2ccc(NCC3(c4ncccc4F)CCC3)nn2)s1 came out at A (A=<1 uM)
